The origin of these recorded values is patent US8293768B2.

result.type: melting point

In plain terms, Cc1cc(N2CCN(CC(O)c3ccccc3)C2=O)sc1C(=O)NCc1cccnc1 (centres unmarked) [Example 57] has a documented melting point of 75 °C (dec.)

So, Cc1nc(N2CCN(Cc3cccc(C(F)(F)F)c3)C2=O)sc1C(=O)NCc1cccnc1 [Example 9.43] ? Its melting point was 175 to 176 °C

The reported value for Cc1nc(-n2cnn(Cc3ccc(C(F)(F)F)cc3)c2=O)sc1C(=O)NCc1cccnc1 [Example 21] in terms of melting point is 156 to 158 °C

melting point for Cc1nc(-n2cnn(Cc3ccc(F)cc3)c2=O)sc1C(=O)NCc1cccnc1 [Example 21.3] is 178 to 179 °C

Cc1cc(N2CCN(CC(=O)c3ccccc3)C2=O)sc1C(=O)NCc1cccnc1 [Example 55.1] yielded melting point of 174 to 176 °C

What the record says about Cc1cc(N2CCN(Cc3ccc(F)cc3)C2=O)sc1C(=O)NCc1cccs1 [Example 55.5] : melting point is 128 to 131 °C

Per the records, this compound ( CNC(=O)c1ccc(CN2CCN(c3nc(C)c(C(C)=O)s3)C2=O)cc1 [Example 8.6] ) has melting point equal to 173 to 175 °C

Value of melting point reported for the compound CCOC(=O)c1sc(N2CCNC2=O)nc1C(F)(F)F [Example 3.2] is 185 to 187 °C

Reported melting point for Cc1nc(N2CCN(Cc3ccc(OC(F)(F)F)cc3)C2=O)sc1C(=O)Nc1ccccc1 [Example 9.30] was 187 to 188 °C

melting point in this record for Cc1cnc(CNC(=O)c2sc(-n3cnn(Cc4ccc(F)cc4)c3=O)cc2C)cn1 [Example 31.5] : 189 to 191 °C

In plain terms, Cc1nc(-n2cnn(CCOCc3ccc(F)cc3)c2=O)sc1C(=O)NCc1cccnc1 [Example 49] has a documented melting point of 235 to 236 °C

GET /value?item= Cc1nc(N2CCN(Cc3ccc(F)cc3)C2=O)sc1C(=O)NCc1ccc(C(F)F)o1 [Example 9.44] &field=melting point returns 173 to 174 °C

Reported melting point ( Cc1cc(CN2CCN(c3nc(C)c(C(=O)NCc4cccnc4)s3)C2=O)no1 [Example 32.3] ) = 185 to 188 °C

Consider CC(=O)c1sc(N2CCN(Cc3ccc(C(F)(F)F)cc3)C2=O)nc1C [Example 5.10] . Its measured melting point is 141 to 142 °C

// field: melting point; key: Cc1nc(N2CCN(Cc3ccccc3)S2(=O)=O)sc1C(=O)NCc1cccnc1 [Example 27.2] ; value = 140 to 142 °C

// recorded melting point for Cc1nc(N2CCN(Cc3ccc(C(F)(F)F)cc3)C2=O)sc1-c1cc[nH]n1 [Example 38] : 212 to 213 °C

Given item Cc1nc(N2CCN(Cc3nccc4ccccc34)C2=O)sc1C(=O)NCc1cccnc1 [Example 32.1] , the value recorded as its melting point is 151 to 153 °C

Data point: Cc1nc(N2CCN(Cc3ccccc3)C2=O)sc1C(=O)NCc1cc(F)cc(F)c1 [Example 9.3] ; melting point = 208 to 209 °C

The compound listed as Cc1cc(-c2sc(N3CCN(Cc4ccc(F)cc4)C3=O)nc2C)n[nH]1 [Example 40.1] shows melting point equal to 218 to 221 °C

melting point reading for Cc1cc(N2CCN(CC3CC3)C2=O)sc1C(=O)NCc1cccnc1 [Example 15.3] : 157 to 159 °C

Reported melting point ( Cc1nc(N2CCN(CCCc3ccccc3)C2=O)sc1C(=O)O [Example 6.12] ) = 218 to 221 °C

compound Cc1nc(N2CCN(Cc3ccc(F)cc3)C2=O)sc1C(=O)NCCN1CCCC1 [Example 8.4] , melting point observed: 183 to 184 °C

Sample Cc1nc(N2CCN(c3ccccc3)C2=O)sc1C(=O)NCc1ccccc1 [Example 7] ; melting point observed: 234 to 236 °C

Kindly note the recorded melting point for COC(=O)c1cnc(N2CCNC2=O)s1 [Example 3.1] , which is 205 to 208 °C

Given item CNC(=O)c1ccc(CN2CCN(c3nc(C)c(-c4cc(C)[nH]n4)s3)C2=O)cc1 [Example 40.2] , the value recorded as its melting point is 236 to 238 °C

Just so you know, measured melting point for Cc1nc(N2CCN(Cc3ccccc3)C2=O)sc1C(=O)NCc1cc(F)ccc1F [Example 9.2] came out at 176 to 177 °C

The compound listed as Cc1nc(N2CCN(Cc3ccc(F)cc3)C2=O)sc1C(=O)NCc1ccncc1 [Example 32.23] has a reported melting point of 146 to 149 °C

Please fill in: melting point reported for Cc1cc(N2CCN(Cc3ccc(C(F)(F)F)cc3)C2=O)sc1C(=O)NCc1cccnc1 [Example 15] = 102 to 104 °C

Value of melting point reported for the compound Cc1nc(N2CCN(CCC3CC3)C2=O)sc1C(=O)NCc1ccc(F)cc1 [Example 9.18] is 122 to 123 °C

Measured melting point of Cc1nc(N2CCN(Cc3ccccc3)S2(=O)=O)sc1C(=O)NCc1ccccc1 [Example 27.1] : 135 to 137 °C

Per the records, this compound ( Cc1nc(N2CCN(CCc3c[nH]c4ccccc34)C2=O)sc1C(=O)NCc1ccccc1 [Example 23.7] ) has melting point equal to 215 to 217 °C

Measured melting point, Cc1nc(N2CCN(Cc3ccc(C(F)(F)F)cc3)C2=O)sc1-c1ccno1 [Example 38.1] : 153 to 154 °C

The compound COC(=O)c1cccc(CN2CCN(c3nc(C)c(C(C)=O)s3)C2=O)c1 [Example 5.17] showed melting point equal to 122 to 124 °C

Entry Cc1nc(N2CCN(Cc3ccc(F)cc3)C2=O)sc1C(=O)NCc1cnn(C)c1 [Example 32.13] ; melting point = 173 to 175 °C

Record summary for Cc1nc(N2CCNC2=O)sc1C(=O)NCc1ccccc1 [Example 22] : reported melting point = 226 to 228 °C
